Molecular target: T1, recombinant monomeric human TIGIT-His (human, UniProt Q495A1 22-141)
T1 construct: also called hTIGIT; not shown: His tag
T1 sequence: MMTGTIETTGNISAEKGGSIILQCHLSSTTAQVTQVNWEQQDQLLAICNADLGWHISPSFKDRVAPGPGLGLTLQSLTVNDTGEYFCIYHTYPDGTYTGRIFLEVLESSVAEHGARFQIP
Assay: BLI (Octet QKe), antibody on AHC sensor, several concentrations of human TIGIT-His, 1:1 global fit, average
assay.metric: kon (M⁻¹ s⁻¹)
Write down the numeric answer in M⁻¹ s⁻¹ and omit the unit.

Q. Recall and state the measured kon for MAB5-IgG4 (antibody, V domains shown) VH: QLQLQESGPGLVKPSETLSLTCTVSGGSISSTSHYWGWIRQPPGKGLEWIGSIYYSGSTFYNPSLKGRVTISVDTSKNQFSLKLSSVTAADTAVYYCARDANYYGSAWAFDPWGQGTLVTVSS VL: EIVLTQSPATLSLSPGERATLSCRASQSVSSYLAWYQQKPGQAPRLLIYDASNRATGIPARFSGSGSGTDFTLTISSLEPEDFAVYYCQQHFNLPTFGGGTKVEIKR .
A. 770000

Q. Recall and state the measured kon for MAB20-IgG4 (antibody, V domains shown) VH: QVQLVQSGAEVKKPGASVKVSCKASGYTFTSHYMGWVRQAPGQGLEWVGIINPSMGATSYAQKFQGRVTMTRDTSTSTVYMELSSLRSEDTAVYYCARLHVSGSYYPAYLDYWGQGTMVTVSS VL: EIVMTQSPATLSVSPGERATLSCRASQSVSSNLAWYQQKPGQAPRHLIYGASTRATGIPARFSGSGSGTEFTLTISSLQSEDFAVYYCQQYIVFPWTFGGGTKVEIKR .
A. 890000
